- protocol: Antiplatelet activity in guinea pig platelet rich plasma assessed as inhibition of U46619-induced aggregation by aggregometry
- Type: functional, cell-free
- condition-details: Cavia porcellus
measurement-type: pIC50
Notebook: values listed as pIC50 are -log10 of the concentration (mol/L).

Ask | Find the recorded pIC50 belonging to `CCNC(=O)c1c(NC(C)C)c2cccnc2n2c(C(C)C)nnc12` and report it.
Reply | 4.05

---

- System: Rattus norvegicus
- protocol: Antiinflammatory activity in Wistar rat assessed as inhibition of carrageenan-induced paw oedema at 50 mg/kg, po administered 1 hr prior to carrageenan challenge
- Assay type: functional
measurement-type: inhibition in vivo at 50 mg/kg (%)
Give a bare numeral; the unit % is implied.

Completed entries (count: 3):
INSERT INTO results (smiles_notation, quantitative_readout) VALUES
  ('CCNC(=O)c1c(NC(CC)CC)c2cccnc2n2c(C(C)C)nnc12', 35),
  ('CCc1nnc2c(C(=O)N(CC)CC)c(N3CCN(C)CC3)c3cccnc3n12', 29),
  ('CC(C)NC(=O)c1c(NC(C)C)c2cccnc2n2c(C(C)C)nnc12', 33);

Ask | Query for Rattus norvegicus: what inhibition in vivo at 50 mg/kg does the record show for `CNC(=O)c1c(NC(C)C)c2cccnc2n2c(C(C)C)nnc12` ?
Reply | 3

Ask | Next molecule up: `CCN1CCN(c2c(C(=O)N(CC)CC)c3nnc(C(C)C)n3c3ncccc23)CC1`
Reply | 35

Ask | Param item: `CCNC(=O)c1c(NC(C)C)c2cccnc2n2c(C(C)C)nnc12`
Reply | 72

Ask | Repeat for the following molecule: `CCCNC(=O)c1c(NC(C)C)c2cccnc2n2c(C(C)C)nnc12`
Reply | 63

---

- Test system: Rattus norvegicus
- protocol: Antiinflammatory activity in Wistar rat assessed as inhibition of carrageenan-induced paw oedema at 100 mg/kg, po administered 1 hr prior to carrageenan challenge
- Format: functional
measurement-type: inhibition in vivo at 100 mg/kg (%)
Just the number please, in %, no unit attached.

Here is how some compounds turned out for inhibition in vivo at 100 mg/kg.
INSERT INTO measurements (smiles_notation, quantitative_readout) VALUES
  ('CCN(CC)C(=O)c1c(N2CCN(C)CC2)c2cccnc2n2c(CN3CCN(C)CC3)nnc12', 0),
  ('CCNC(=O)c1c(NC(CC)CC)c2cccnc2n2c(C(C)C)nnc12', 60),
  ('CCN(CC)C(=O)c1c(NC(C)C)c2cccnc2n2c(CN3CCN(C)CC3)nnc12', 13),
  ('CCCNC(=O)c1c(NC(C)C)c2cccnc2n2c(C(C)C)nnc12', 72),
  ('CC(C)NC(=O)c1c(NC(C)C)c2cccnc2n2c(C(C)C)nnc12', 34);

Ask | Query the reported inhibition in vivo at 100 mg/kg for Rattus norvegicus; item: `CCN(CC)C(=O)c1c(N2CCN(CCO)CC2)c2cccnc2n2c(C(C)C)nnc12`
Reply | 0

Ask | Next entry: `CCNC(=O)c1c(NC(C)C)c2cccnc2n2c(C(C)C)nnc12`
Reply | 80

Ask | // next record `CCN(CC)C(=O)c1c(NC(C)C)c2cccnc2n2c(CN3CCOCC3)nnc12`
Reply | 0

Ask | Please do the same for `CCN(CC)C(=O)c1c(NCC(C)C)c2cccnc2n2c(=O)cc(C)nc12` as well.
Reply | 15

Ask | Queued: `CCN1CCN(c2c(C(=O)N(CC)CC)c3nnc(C(C)C)n3c3ncccc23)CC1`
Reply | 31
